- system_under_test: Casein kinase II subunit alpha (Homo sapiens, UniProt P68400)
- Sequence (P68400 whole entry): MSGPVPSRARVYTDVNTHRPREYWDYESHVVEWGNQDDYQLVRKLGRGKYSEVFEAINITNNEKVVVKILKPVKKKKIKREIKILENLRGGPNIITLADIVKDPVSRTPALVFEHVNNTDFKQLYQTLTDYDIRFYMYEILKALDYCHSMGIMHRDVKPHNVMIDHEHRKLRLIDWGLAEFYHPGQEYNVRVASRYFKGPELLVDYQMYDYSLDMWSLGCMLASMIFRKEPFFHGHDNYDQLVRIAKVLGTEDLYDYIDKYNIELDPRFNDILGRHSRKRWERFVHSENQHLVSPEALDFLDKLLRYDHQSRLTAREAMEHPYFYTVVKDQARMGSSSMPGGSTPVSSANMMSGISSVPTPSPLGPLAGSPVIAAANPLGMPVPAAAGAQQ
- assay_overview: Inhibition of human wild type CK2alpha
parameter_measured: Ki (nM)
Just the number please, in nM, no unit attached.

In: Quick check: Ki on Casein kinase II subunit alpha (Homo sapiens, UniProt P68400), item `S=c1[nH]c2c(Br)c(Br)c(Br)c(Br)c2[nH]1` ?
Out: 70

###

- system_under_test: Cellular tumor antigen p53 (Homo sapiens, UniProt P04637, Y220C)
- assay_overview: Stabilization of human p53 Y220C mutant by differential scanning calorimetry
parameter_measured: pKd
Scale note: pKd = -log10(concentration in M).

In: Looking for the measured pKd of `CCn1c2ccccc2c2cc(CNC)ccc21` , can you help?
Out: 3.82
